FYI, the data here is from patent US8765779B2.

Each entry below lists one item and its recorded Ki value.
target: human 5-HT6 receptor (Homo sapiens, UniProt P50406); construct: host or cells: CHO-K1 cells, stably transfected; membranes prepared in house; assay: Human 5-HT6 Receptor Binding Assay ([3H]LSD displacement, scintillation beads); conditions: membranes of CHO-K1 cells with recombinant human 5-HT6, 4 nM [3H]LSD; Table 1, class symbols; read-out: h5-HT6 (Ki)
Sequence (P50406 whole entry): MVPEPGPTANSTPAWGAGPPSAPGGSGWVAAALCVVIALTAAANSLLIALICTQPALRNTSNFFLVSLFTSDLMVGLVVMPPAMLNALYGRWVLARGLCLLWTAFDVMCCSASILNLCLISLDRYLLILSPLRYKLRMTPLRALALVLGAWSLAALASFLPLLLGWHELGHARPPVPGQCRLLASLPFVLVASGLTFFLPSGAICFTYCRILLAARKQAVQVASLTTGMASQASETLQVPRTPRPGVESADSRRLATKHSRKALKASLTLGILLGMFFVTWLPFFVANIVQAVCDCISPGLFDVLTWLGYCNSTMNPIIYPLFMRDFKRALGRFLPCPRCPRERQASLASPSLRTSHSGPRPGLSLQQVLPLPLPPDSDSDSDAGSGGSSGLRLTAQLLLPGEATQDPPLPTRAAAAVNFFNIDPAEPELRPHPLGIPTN

Reference set (6 entries):
compound: Cc1cccc(S(=O)(=O)c2ccc3c4c(oc3c2)CNCC4)c1
Ki: < 500 nM
--
compound: O=S(=O)(c1cccc(F)c1)c1ccc2c3c(oc2c1)C1CCCCN1CC3 (stereo not drawn)
Ki: < 500 nM
--
compound: O=S(=O)(Oc1ccc2c(c1)C1CCNCC1O2)c1cccc2ccccc12 (stereo not drawn)
Ki: < 500 nM
--
compound: O=S(=O)(NC1Cc2ccccc2C1)c1ccc2c(c1)C1CCNCC1O2 (stereo not drawn)
Ki: > 1000 nM
--
compound: N#Cc1ccccc1COc1cccc(S(=O)(=O)c2ccc3c(c2)OC2CNCCC32)c1 (stereo not drawn)
Ki: 500 to 1000 nM
--
compound: Cc1ccc(S(=O)(=O)c2ccc3c(c2)OC2CNCCC32)cc1 (stereo not drawn)
Ki: < 500 nM

Consider CC(C)c1ccc(S(=O)(=O)c2ccc3c(c2)C2CCNCC2O3)cc1 (stereo not drawn) . Its measured Ki is < 500 nM

Measured Ki of O=S(=O)(c1ccc(Cl)cc1)c1ccc2c3c(oc2c1)CNCC3 : < 500 nM

Summary for this compound, O=S(=O)(c1cncc(C(F)(F)F)c1)c1ccc2c(c1)OC1CNCCC21 (stereo not drawn) [Example 459] : Ki is > 1000 nM

###

Reported Ki values for the following compounds.
target: human 5-HT6 receptor (Homo sapiens, UniProt P50406); construct: host or cells: CHO-K1 cells, stably transfected; membranes prepared in house; assay: Human 5-HT6 Receptor Binding Assay ([3H]LSD displacement, scintillation beads); details: membranes of CHO-K1 cells with recombinant human 5-HT6, 4 nM [3H]LSD; Table 1, class symbols; read-out: h5-HT6 (Ki)

# annotated cases, reported Ki shown
compound: O=S(=O)(Nc1ccc(F)cc1)c1ccc2c(c1)C1CCNCC1O2 (stereo not drawn)
measured.result: > 1000 nM

compound: COc1ccc(S(=O)(=O)c2ccc3oc4c(c3c2)CCNC4)cc1F
measured.result: < 500 nM

compound: O=S(=O)(c1ccc2c(c1)C1CCNCC1O2)N1CCC2CCCCC2C1 (stereo not drawn)
measured.result: > 1000 nM

Here O=S(=O)(c1ccc(C(F)(F)F)cc1)c1ccc2c(c1)OC1CNCCC21 (stereo not drawn) was tested on human 5-HT6 receptor (Homo sapiens, UniProt P50406), and its Ki came to 500 to 1000 nM

Recorded Ki for O=S(=O)(c1cccc(C(F)(F)F)c1)c1ccc2c3c(oc2c1)C1(CCOC1)NCC3 (stereo not drawn) [Example 307] on human 5-HT6 receptor (Homo sapiens, UniProt P50406) was < 500 nM

Field Ki (system: human 5-HT6 receptor (Homo sapiens, UniProt P50406)) for entry O=[N+]([O-])c1ccc(S(=O)(=O)Oc2ccc3c(c2)OC2CNCCC32)cc1 (stereo not drawn) = 500 to 1000 nM

###

The following molecules are shown together with reported pKi values.
target: human 5-HT6 receptor (Homo sapiens, UniProt P50406); construct: host or cells: CHO-K1 cells, stably transfected; membranes prepared in house; test: Human 5-HT6 Receptor Binding Assay ([3H]LSD displacement, scintillation beads); settings: membranes of CHO-K1 cells with recombinant human 5-HT6, 4 nM [3H]LSD; Table 1, class symbols; read-out: h5-HT6 (Ki)
pKi: −log10 of the molar value.

Past entries and their recorded results:
molecule: O=S(=O)(c1ccc2c(c1)OC1CNCCC21)c1nc2ccccc2s1 (centres unmarked) [Example 65]
study.system: human 5-HT6 receptor (Homo sapiens, UniProt P50406)
pKi: > 6.30

molecule: O=S(=O)(c1ccc2c3c(oc2c1)CNCC3)c1ccccc1-c1ccccc1 [Example 232]
study.system: human 5-HT6 receptor (Homo sapiens, UniProt P50406)
pKi: > 6.30

molecule: O=S(=O)(c1cccc(Cl)c1)c1ccc2c3c(oc2c1)C(CC(F)(F)F)NCC3 (centres unmarked) [Example 504]
study.system: human 5-HT6 receptor (Homo sapiens, UniProt P50406)
pKi: > 6.30

molecule: CC1(C)NCCc2c1oc1cc(S(=O)(=O)c3cc(Cl)c[n+]([O-])c3N)ccc21 [Example 371]
study.system: human 5-HT6 receptor (Homo sapiens, UniProt P50406)
pKi: > 6.30

molecule: O=S(=O)(c1cc[n+]([O-])cc1)c1ccc2oc3c(c2c1)CCNC3 [Example 351]
study.system: human 5-HT6 receptor (Homo sapiens, UniProt P50406)
pKi: < 6.00

molecule: CC1(C)NCCc2c1oc1ccc(S(=O)(=O)c3cccc(F)c3)cc21 [Example 42]
study.system: human 5-HT6 receptor (Homo sapiens, UniProt P50406)
pKi: 6.00 to 6.30

molecule: CC(=O)NCC1NCCc2c1oc1cc(S(=O)(=O)c3cccc(F)c3)ccc21 (racemic) [Example 535]
study.system: human 5-HT6 receptor (Homo sapiens, UniProt P50406)
pKi: > 6.30

pKi in this record for COc1ccc(OC)c(S(=O)(=O)Oc2ccc3c(c2)OC2CNCCC32)c1 (centres unmarked) [Example 670] : > 6.30
